- TARGET_OR_TEST_SYSTEM: MAP2K7 (human)
- TEST_SUMMARY: KINOMEscan competition binding
- ASSAY_CONDITIONS: compound 10.0 µM
kinase still bound, per cent of control for assorted compounds

STRUCTURE_STRING | UNIT_ANNOTATION | kinase still bound, per cent of control
C[C@@H](Oc1cc(-n2cnc3ccc(CN4CCN(C)CC4)cc32)sc1C(N)=O)c1ccccc1C(F)(F)F | % | 80
CCN1CCN(Cc2ccc(Nc3ncc4c(n3)N(C)c3ccccc3C(=O)N4C)cc2C(F)(F)F)CC1 | % | 100
Cc1ccc(NC(=O)c2cccc(C(C)(C)C#N)c2)cc1Nc1ccc2ncn(C)c(=O)c2c1 | % | 93
O=C1Nc2ccc(I)cc2/C1=C/c1cc(Br)c(O)c(Br)c1 | % | 98
O=C(NC1CC1)c1cccc(-c2ccc3c(NC(=O)C4CC4)n[nH]c3c2)c1 | % | 100
CN(C)C/C=C/C(=O)Nc1cccc(Nc2ncc3c(n2)N(C)c2ccccc2C(=O)N3C)c1 | % | 97
Cc1ccc2nc(NCCN)c3ncc(C)n3c2c1 | % | 100
CCC(=O)N1CCN(c2ccc(-n3c(=O)ccc4cnc5ccc(-c6cnc7ccccc7c6)cc5c43)cc2C(F)(F)F)CC1 | % | 100
C=CC(=O)Nc1cccc(Nc2nc(N[C@H]3CC[C@H](N(C)C)CC3)nc3c2ncn3C(C)C)c1 | % | 100

###

kinase still bound, per cent of control for assorted compounds
- TARGET_OR_TEST_SYSTEM: NTRK3 (human)
- TEST_SUMMARY: KINOMEscan competition binding
- ASSAY_CONDITIONS: compound 10.0 µM

STRUCTURE_STRING | TARGET_OR_TEST_SYSTEM | kinase still bound, per cent of control / %
C=CC(=O)Nc1cc(NC(=O)c2ccc(C)c(NC(=O)c3ccno3)c2)cc(C(F)(F)F)c1 | NTRK3 (human) | 100
CN(C)C/C=C/C(=O)Nc1cccc(Nc2ncc3c(n2)N(C)c2ccccc2C(=O)N3C)c1 | NTRK3 (human) | 16
C[C@@H](Oc1cc(-n2cnc3ccc(CN4CCN(C)CC4)cc32)sc1C(N)=O)c1ccccc1C(F)(F)F | NTRK3 (human) | 100
Cc1ccc2nc(NCCN)c3ncc(C)n3c2c1 | NTRK3 (human) | 100
N#Cc1c(NC(=O)c2cccc3ccccc23)sc2c1CCCC2 | NTRK3 (human) | 86
CCN1CCN(Cc2ccc(Nc3ncc4c(n3)N(C)c3ccccc3C(=O)N4C)cc2C(F)(F)F)CC1 | NTRK3 (human) | 100
O=C(NOC[C@H](O)CO)c1ccc(F)c(F)c1Nc1ccc(I)cc1F | NTRK3 (human) | 93
CC[C@@H]1C(=O)N(C)c2cnc(Nc3ccc(C(=O)NC4CCN(C)CC4)cc3OC)nc2N1C1CCCC1 | NTRK3 (human) | 100
O=C(O)c1ccc(Nc2ncc3c(n2)-c2ccc(Cl)cc2C(c2c(F)cccc2F)=NC3)cc1 | NTRK3 (human) | 65

###

- TARGET_OR_TEST_SYSTEM: UniProtKB P11362
- Sequence (P11362 whole entry, looked up): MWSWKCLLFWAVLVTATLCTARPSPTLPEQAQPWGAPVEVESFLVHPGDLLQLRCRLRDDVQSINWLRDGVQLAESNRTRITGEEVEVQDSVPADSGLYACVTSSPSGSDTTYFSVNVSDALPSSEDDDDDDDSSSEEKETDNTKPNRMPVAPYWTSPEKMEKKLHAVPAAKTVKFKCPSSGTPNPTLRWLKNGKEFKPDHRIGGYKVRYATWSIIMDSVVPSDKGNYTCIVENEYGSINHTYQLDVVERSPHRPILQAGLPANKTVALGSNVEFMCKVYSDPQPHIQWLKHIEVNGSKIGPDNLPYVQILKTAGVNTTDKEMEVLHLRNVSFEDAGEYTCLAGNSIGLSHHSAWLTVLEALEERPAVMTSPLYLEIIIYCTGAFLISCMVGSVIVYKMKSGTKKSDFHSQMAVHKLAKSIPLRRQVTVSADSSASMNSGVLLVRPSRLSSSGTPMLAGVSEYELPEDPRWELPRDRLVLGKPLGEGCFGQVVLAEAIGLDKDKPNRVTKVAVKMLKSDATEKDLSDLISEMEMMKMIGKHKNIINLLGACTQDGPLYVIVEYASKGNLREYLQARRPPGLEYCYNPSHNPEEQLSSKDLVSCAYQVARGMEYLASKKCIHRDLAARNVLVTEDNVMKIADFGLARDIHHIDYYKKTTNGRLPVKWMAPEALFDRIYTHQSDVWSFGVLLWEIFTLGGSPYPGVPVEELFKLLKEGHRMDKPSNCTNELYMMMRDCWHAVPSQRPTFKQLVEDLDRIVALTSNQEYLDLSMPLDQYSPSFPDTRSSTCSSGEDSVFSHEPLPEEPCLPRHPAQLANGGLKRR
- TEST_SUMMARY: KINOMEscan competition binding
- ASSAY_CONDITIONS: compound 10.0 µM
kinase still bound, per cent of control for assorted molecules
QUANTITY: kinase still bound, per cent of control

STRUCTURE_STRING | QUANTITY | RESULT
CC[C@@H]1C(=O)N(C)c2cnc(Nc3ccc(C(=O)NC4CCN(C)CC4)cc3OC)nc2N1C1CCCC1 | kinase still bound, per cent of control | 100%
O=C1Nc2ccc(I)cc2/C1=C/c1cc(Br)c(O)c(Br)c1 | kinase still bound, per cent of control | 77%
CN(C)C/C=C/C(=O)Nc1cccc(Nc2ncc3c(n2)N(C)c2ccccc2C(=O)N3C)c1 | kinase still bound, per cent of control | 3.5%
CCCS(=O)(=O)Nc1ccc(F)c(C(=O)c2c[nH]c3ncc(-c4ccc(Cl)cc4)cc23)c1F | kinase still bound, per cent of control | 49%
C=CC(=O)Nc1cccc(Oc2nc(Nc3ccc(N4CCN(C)CC4)cc3OC)ncc2Cl)c1 | kinase still bound, per cent of control | 10%
CCC(=O)N1CCN(c2ccc(-n3c(=O)ccc4cnc5ccc(-c6cnc7ccccc7c6)cc5c43)cc2C(F)(F)F)CC1 | kinase still bound, per cent of control | 96%

###

- TARGET_OR_TEST_SYSTEM: TXK (human) (UniProt P42681)
- Sequence (P42681 whole entry, looked up): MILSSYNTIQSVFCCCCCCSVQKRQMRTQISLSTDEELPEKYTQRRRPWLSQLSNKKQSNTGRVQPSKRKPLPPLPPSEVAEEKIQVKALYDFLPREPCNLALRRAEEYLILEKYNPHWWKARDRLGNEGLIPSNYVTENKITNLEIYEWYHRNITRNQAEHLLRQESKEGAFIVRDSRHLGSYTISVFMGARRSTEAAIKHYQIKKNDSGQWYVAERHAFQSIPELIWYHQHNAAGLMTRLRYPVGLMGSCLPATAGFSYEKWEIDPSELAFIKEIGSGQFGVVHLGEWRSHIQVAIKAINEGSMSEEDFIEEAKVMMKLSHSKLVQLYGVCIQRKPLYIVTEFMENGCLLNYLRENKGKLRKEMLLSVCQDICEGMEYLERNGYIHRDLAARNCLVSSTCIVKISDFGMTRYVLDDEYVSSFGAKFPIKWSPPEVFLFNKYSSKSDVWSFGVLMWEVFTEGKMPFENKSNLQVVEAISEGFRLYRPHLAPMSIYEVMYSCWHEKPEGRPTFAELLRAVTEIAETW
- TEST_SUMMARY: KINOMEscan competition binding
- ASSAY_CONDITIONS: compound 10.0 µM
kinase still bound, per cent of control less than 50% is MET; kinase still bound, per cent of control greater than or equal to 50% is NOT MET.

COMPOUND | GROUP
CN(C)C/C=C/C(=O)Nc1cccc(Nc2ncc3c(n2)N(C)c2ccccc2C(=O)N3C)c1 | MET
C=CC(=O)Nc1cccc(Nc2nc(N[C@H]3CC[C@H](N(C)C)CC3)nc3c2ncn3C(C)C)c1 | MET
CCN1CCN(Cc2ccc(Nc3ncc4c(n3)N(C)c3ccccc3C(=O)N4C)cc2C(F)(F)F)CC1 | MET
COc1cc(C(=O)NC2CCN(C)CC2)ccc1Nc1ncc2c(n1)N(C1CCCC1)CCC(=O)N2C(C)C | NOT MET
O=C(O)c1ccc(Nc2ncc3c(n2)-c2ccc(Cl)cc2C(c2c(F)cccc2F)=NC3)cc1 | MET
Cc1ccc(NC(=O)c2cccc(C(C)(C)C#N)c2)cc1Nc1ccc2ncn(C)c(=O)c2c1 | MET
COc1cc(C(=O)NC2CCN(C)CC2)ccc1Nc1ncc2c(n1)N(C1CCCC1)C(C)CC(=O)N2C (stereo unspecified) | NOT MET
C=CC(=O)Nc1cc(NC(=O)c2ccc(C)c(NC(=O)c3ccno3)c2)cc(C(F)(F)F)c1 | NOT MET
N#Cc1c(NC(=O)c2cccc3ccccc23)sc2c1CCCC2 | NOT MET
CCCS(=O)(=O)Nc1ccc(F)c(C(=O)c2c[nH]c3ncc(-c4ccc(Cl)cc4)cc23)c1F | NOT MET
Cc1ccc2nc(NCCN)c3ncc(C)n3c2c1 | NOT MET
COc1cc(N2CCN(C)CC2)ccc1Nc1nc(N)c(C(=O)c2c(Cl)cccc2Cl)s1 | NOT MET
Cn1c(=O)n(-c2ccc(C(C)(C)C#N)cc2)c2c3cc(-c4cnc5ccccc5c4)ccc3ncc21 | NOT MET
O=C(NOC[C@H](O)CO)c1ccc(F)c(F)c1Nc1ccc(I)cc1F | NOT MET
CCC(=O)N1CCN(c2ccc(-n3c(=O)ccc4cnc5ccc(-c6cnc7ccccc7c6)cc5c43)cc2C(F)(F)F)CC1 | NOT MET
Nc1ccc(-c2ccc3ncc4ccc(=O)n(-c5cccc(C(F)(F)F)c5)c4c3c2)cn1 | NOT MET

###

- TARGET_OR_TEST_SYSTEM: PRKCD (human) (UniProt Q05655)
- Sequence (Q05655 whole entry, looked up): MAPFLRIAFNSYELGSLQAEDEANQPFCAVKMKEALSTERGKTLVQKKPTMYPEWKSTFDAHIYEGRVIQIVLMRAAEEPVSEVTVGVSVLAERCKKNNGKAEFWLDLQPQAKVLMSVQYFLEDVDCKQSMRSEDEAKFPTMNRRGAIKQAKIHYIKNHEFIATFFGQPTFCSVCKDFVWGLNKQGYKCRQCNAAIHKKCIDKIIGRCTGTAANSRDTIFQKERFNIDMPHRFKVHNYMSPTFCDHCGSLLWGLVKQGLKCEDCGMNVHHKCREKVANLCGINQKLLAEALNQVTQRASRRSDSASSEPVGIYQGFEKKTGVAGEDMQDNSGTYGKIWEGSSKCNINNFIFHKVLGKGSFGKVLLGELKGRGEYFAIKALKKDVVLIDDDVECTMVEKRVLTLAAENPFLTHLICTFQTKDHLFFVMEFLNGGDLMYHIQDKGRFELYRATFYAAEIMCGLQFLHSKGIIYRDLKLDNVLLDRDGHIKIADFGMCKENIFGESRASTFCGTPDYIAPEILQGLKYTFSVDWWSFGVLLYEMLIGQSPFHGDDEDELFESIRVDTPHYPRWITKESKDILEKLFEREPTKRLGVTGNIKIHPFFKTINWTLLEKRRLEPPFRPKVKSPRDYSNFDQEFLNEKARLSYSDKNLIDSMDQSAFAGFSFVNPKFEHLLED
- TEST_SUMMARY: KINOMEscan competition binding
- ASSAY_CONDITIONS: compound 10.0 µM
kinase still bound, per cent of control for assorted compounds

STRUCTURE_STRING | TARGET_OR_TEST_SYSTEM | UNIT_ANNOTATION | kinase still bound, per cent of control
O=C(NC1CC1)c1cccc(-c2ccc3c(NC(=O)C4CC4)n[nH]c3c2)c1 | PRKCD (human) (UniProt Q05655) | % | 100
COc1cc(N2CCN(C)CC2)ccc1Nc1nc(N)c(C(=O)c2c(Cl)cccc2Cl)s1 | PRKCD (human) (UniProt Q05655) | % | 68
CCOc1cc2ncc(C#N)c(Nc3ccc(OCc4ccccn4)c(Cl)c3)c2cc1NC(=O)/C=C/CN(C)C | PRKCD (human) (UniProt Q05655) | % | 100
N#Cc1c(NC(=O)c2cccc3ccccc23)sc2c1CCCC2 | PRKCD (human) (UniProt Q05655) | % | 100
C=CC(=O)Nc1cc(NC(=O)c2ccc(C)c(NC(=O)c3ccno3)c2)cc(C(F)(F)F)c1 | PRKCD (human) (UniProt Q05655) | % | 91

###

- TARGET_OR_TEST_SYSTEM: UniProtKB Q05397
- Sequence (Q05397 whole entry, looked up): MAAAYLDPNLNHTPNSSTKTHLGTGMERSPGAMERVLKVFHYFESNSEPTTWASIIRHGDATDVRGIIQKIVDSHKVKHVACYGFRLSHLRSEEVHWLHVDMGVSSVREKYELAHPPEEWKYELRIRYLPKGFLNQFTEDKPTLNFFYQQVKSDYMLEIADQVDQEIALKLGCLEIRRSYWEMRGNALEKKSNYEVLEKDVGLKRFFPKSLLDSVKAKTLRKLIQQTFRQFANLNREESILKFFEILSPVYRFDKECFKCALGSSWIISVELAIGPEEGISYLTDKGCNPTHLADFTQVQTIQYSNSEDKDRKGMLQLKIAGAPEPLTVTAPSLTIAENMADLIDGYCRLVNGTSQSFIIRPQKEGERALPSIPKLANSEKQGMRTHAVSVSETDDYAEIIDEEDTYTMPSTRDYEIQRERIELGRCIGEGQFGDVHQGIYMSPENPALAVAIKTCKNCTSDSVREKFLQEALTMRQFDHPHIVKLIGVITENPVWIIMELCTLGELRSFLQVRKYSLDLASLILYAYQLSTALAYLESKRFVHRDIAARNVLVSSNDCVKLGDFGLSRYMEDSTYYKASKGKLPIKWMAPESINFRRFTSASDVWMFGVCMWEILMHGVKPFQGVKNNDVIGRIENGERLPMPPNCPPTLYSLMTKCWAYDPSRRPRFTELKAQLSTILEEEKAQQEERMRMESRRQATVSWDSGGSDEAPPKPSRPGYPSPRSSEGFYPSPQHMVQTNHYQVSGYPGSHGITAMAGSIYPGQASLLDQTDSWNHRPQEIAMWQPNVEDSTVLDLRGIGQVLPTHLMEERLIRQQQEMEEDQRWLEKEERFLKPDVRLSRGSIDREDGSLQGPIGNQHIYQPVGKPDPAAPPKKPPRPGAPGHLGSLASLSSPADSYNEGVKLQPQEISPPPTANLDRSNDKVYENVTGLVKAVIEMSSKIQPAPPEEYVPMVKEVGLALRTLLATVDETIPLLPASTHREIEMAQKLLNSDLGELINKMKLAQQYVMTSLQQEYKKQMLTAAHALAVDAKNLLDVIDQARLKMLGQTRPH
- TEST_SUMMARY: KINOMEscan competition binding
- ASSAY_CONDITIONS: compound 10.0 µM
QUANTITY: kinase still bound, per cent of control (%)

COMPOUND | QUANTITY | MEASURED_NUMBER
COc1cc(C(=O)NC2CCN(C)CC2)ccc1Nc1ncc2c(n1)N(C1CCCC1)CCC(=O)N2C(C)C | kinase still bound, per cent of control | 100
CCCS(=O)(=O)Nc1ccc(F)c(C(=O)c2c[nH]c3ncc(-c4ccc(Cl)cc4)cc23)c1F | kinase still bound, per cent of control | 63
O=C(O)c1ccc(Nc2ncc3c(n2)-c2ccc(Cl)cc2C(c2c(F)cccc2F)=NC3)cc1 | kinase still bound, per cent of control | 23
CCN1CCN(Cc2ccc(Nc3ncc4c(n3)N(C)c3ccccc3C(=O)N4C)cc2C(F)(F)F)CC1 | kinase still bound, per cent of control | 57
O=C1Nc2ccc(I)cc2/C1=C/c1cc(Br)c(O)c(Br)c1 | kinase still bound, per cent of control | 98
COc1cc(C(=O)NC2CCN(C)CC2)ccc1Nc1ncc2c(n1)N(C1CCCC1)C(C)CC(=O)N2C (stereo not given) | kinase still bound, per cent of control | 0.4
OCCCNc1cc(-c2ccnc(Nc3cccc(Cl)c3)n2)ccn1 | kinase still bound, per cent of control | 100
CN(C)C/C=C/C(=O)Nc1cccc(Nc2ncc3c(n2)N(C)c2ccccc2C(=O)N3C)c1 | kinase still bound, per cent of control | 14
Cc1ccc(C(=O)Nc2cccc(C(F)(F)F)c2)cc1Nc1cncc(C(N)=O)c1 | kinase still bound, per cent of control | 100
COc1cc(N2CCN(C)CC2)ccc1Nc1nc(N)c(C(=O)c2c(Cl)cccc2Cl)s1 | kinase still bound, per cent of control | 62
CC[C@@H]1C(=O)N(C)c2cnc(Nc3ccc(C(=O)NC4CCN(C)CC4)cc3OC)nc2N1C1CCCC1 | kinase still bound, per cent of control | 2.4
CCOc1cc2ncc(C#N)c(Nc3ccc(OCc4ccccn4)c(Cl)c3)c2cc1NC(=O)/C=C/CN(C)C | kinase still bound, per cent of control | 65
C=CC(=O)Nc1cc(NC(=O)c2ccc(C)c(NC(=O)c3ccno3)c2)cc(C(F)(F)F)c1 | kinase still bound, per cent of control | 91
O=C(NC1CC1)c1cccc(-c2ccc3c(NC(=O)C4CC4)n[nH]c3c2)c1 | kinase still bound, per cent of control | 90
Cc1cc([C@@H](C)Nc2ccccc2C(=O)O)c2nc(N3CCOCC3)cc(=O)n2c1 | kinase still bound, per cent of control | 88
O=C(NOC[C@H](O)CO)c1ccc(F)c(F)c1Nc1ccc(I)cc1F | kinase still bound, per cent of control | 85
CCC(=O)N1CCN(c2ccc(-n3c(=O)ccc4cnc5ccc(-c6cnc7ccccc7c6)cc5c43)cc2C(F)(F)F)CC1 | kinase still bound, per cent of control | 14
Cn1c(=O)n(-c2ccc(C(C)(C)C#N)cc2)c2c3cc(-c4cnc5ccccc5c4)ccc3ncc21 | kinase still bound, per cent of control | 100
N#Cc1c(NC(=O)c2cccc3ccccc23)sc2c1CCCC2 | kinase still bound, per cent of control | 91
C=CC(=O)Nc1cccc(Oc2nc(Nc3ccc(N4CCN(C)CC4)cc3OC)ncc2Cl)c1 | kinase still bound, per cent of control | 0.1
